Where these numbers come from: paper PMC2248166

- measuredTarget: HLA B*1503 (Homo sapiens, UniProt P01889, A329T/A93T/A95T/C349S/D201E/D98Y/E187L/E204Q/K202T/N87E/Q94N/R155S/R180L/S121R/S35A/V306I/V36M/Y140S/Y91S)
- protocolText: biochemical
Where a SMILES comes first, the peptide text is derived from it.
assayEndpoint: pIC50
Just so you know, pIC50 here is -log10 of the concentration in molar units; reply with that number alone.

Some entries whose results are on file:
INSERT INTO results (compound, assayresult) VALUES
  ('CC(C)C[C@H](NC(=O)[C@@H](N)Cc1ccccc1)C(=O)N[C@@H](CO)C(=O)N[C@@H](CC(N)=O)C(=O)N[C@@H](CS)C(=O)N[C@@H](CCC(=O)O)C(=O)N[C@@H](CCCCN)C(=O)N[C@@H](CCC(N)=O)C(=O)N[C@@H](Cc1ccccc1)C(=O)O [3102.1206] (H-FLSNCEKQF-OH)', 7.68),
  ('CC[C@H](C)[C@H](N)C(=O)N[C@@H](CCCCN)C(=O)N[C@@H](Cc1ccc(O)cc1)C(=O)N[C@@H](CCSC)C(=O)N[C@H](C(=O)NCC(=O)N[C@@H](CC(N)=O)C(=O)N[C@@H](Cc1ccccc1)C(=O)N[C@@H](CCSC)C(=O)O)[C@@H](C)CC [3102.1120] (H-IKYMIGNFM-OH)', 8.66),
  ('CC[C@H](C)[C@H](NC(=O)[C@@H](N)CCCCN)C(=O)NCC(=O)N[C@@H](CCSC)C(=O)N[C@@H](Cc1ccccc1)C(=O)N[C@@H](CC(N)=O)C(=O)N[C@@H](CC(C)C)C(=O)N[C@H](C(=O)N[C@@H](Cc1ccccc1)C(=O)O)[C@@H](C)O [3102.0341] (H-KIGMFNLTF-OH)', 7.89),
  ('CC(C)C[C@H](N)C(=O)N[C@@H](CCCCN)C(=O)N[C@@H](CO)C(=O)N[C@@H](CC(N)=O)C(=O)N[C@@H](C)C(=O)N[C@@H](CC(=O)O)C(=O)N[C@@H](Cc1c[nH]c2ccccc12)C(=O)N[C@@H](Cc1ccccc1)C(=O)N[C@@H](Cc1ccccc1)C(=O)O [3102.1304] (H-LKSNADWFF-OH)', 8.00),
  ('CC[C@H](C)[C@H](N)C(=O)N[C@@H](CCC(N)=O)C(=O)N[C@@H](Cc1c[nH]cn1)C(=O)N[C@@H](CC(N)=O)C(=O)N[C@@H](Cc1ccccc1)C(=O)N[C@H](C(=O)N[C@@H](CCC(N)=O)C(=O)N[C@H](C(=O)N[C@@H](C)C(=O)O)[C@@H](C)CC)[C@@H](C)O [3102.1181] (H-IQHNFTQIA-OH)', 9.60),
  ('CC[C@H](C)[C@H](NC(=O)[C@H](CC(C)C)NC(=O)[C@@H](NC(=O)[C@H](CO)NC(=O)[C@@H](NC(=O)[C@H](CCCCN)NC(=O)[C@H](C)N)[C@@H](C)O)[C@@H](C)O)C(=O)N[C@@H](Cc1ccccc1)C(=O)N[C@@H](Cc1ccccc1)C(=O)O [3102.1088] (H-AKTSTLIFF-OH)', 8.80);

Attention now shifts to the item below.
Request: Would you mind telling me what pIC50 value was observed for CC[C@H](C)[C@H](NC(=O)[C@H](CO)NC(=O)[C@H](CCC(N)=O)NC(=O)[C@H](CCC(N)=O)NC(=O)[C@H](CC(C)C)NC(=O)[C@H](Cc1ccccc1)NC(=O)[C@H](CC(C)C)NC(=O)[C@@H](N)C(C)C)C(=O)N[C@@H](Cc1ccccc1)C(=O)O [3102.1081] (H-VLFLQQSIF-OH) ?
Result: 9.21

###

- measuredTarget: HLA B*1501 (Homo sapiens, UniProt P01889, A329T/A93T/A95T/C349S/D201E/D98Y/E187L/E204Q/E69M/E70A/K202T/N87E/Q94N/R155S/R180W/S121R/S35A/S48A/V306I/V36M/Y140S/Y91S)
- protocolText: biochemical
Where a SMILES comes first, the peptide text is derived from it.
assayEndpoint: IC50
# do not omit the unit; it follows the number

Some entries whose results are on file:
INSERT INTO results (compound, assayendpoint, assayresult) VALUES
  ('CC[C@H](C)[C@H](NC(=O)[C@H](CC(N)=O)NC(=O)[C@H](C)NC(=O)[C@H](CCCNC(=N)N)NC(=O)CNC(=O)[C@@H](N)CC(C)C)C(=O)N[C@H](C(=O)N[C@@H](Cc1c[nH]cn1)C(=O)N[C@@H](Cc1ccccc1)C(=O)O)[C@@H](C)O [3102.1006] (H-LGRANITHF-OH)', 'IC50', '6.7 nM'),
  ('CC[C@H](C)[C@H](NC(=O)[C@@H]1CCCN1C(=O)[C@H](CCC(=O)O)NC(=O)[C@H](CC(N)=O)NC(=O)[C@H](CO)NC(=O)[C@H](CC(=O)O)NC(=O)[C@H](Cc1ccccc1)NC(=O)[C@H](CC(C)C)NC(=O)[C@@H](N)CC(C)C)C(=O)O [3102.0916] (H-LLFDSNEPI-OH)', 'IC50', '16 nM'),
  ('CSCC[C@H](NC(=O)[C@H](CO)NC(=O)[C@H](CCSC)NC(=O)[C@@H](N)CCSC)C(=O)N[C@@H](Cc1ccc(O)cc1)C(=O)NCC(=O)N[C@@H](CCCCN)C(=O)N[C@@H](C)C(=O)N[C@@H](Cc1ccccc1)C(=O)O [3102.1173] (H-MMSMYGKAF-OH)', 'IC50', '3.2 nM');

Attention now shifts to the item below.
Request: Would you mind telling me what IC50 value was observed for CC[C@H](C)[C@H](N)C(=O)N[C@H](C(=O)N[C@H](C(=O)N1CCC[C@H]1C(=O)N[C@@H](Cc1ccccc1)C(=O)N[C@H](C(=O)N[C@@H](C)C(=O)N[C@@H](Cc1ccc(O)cc1)C(=O)N[C@@H](Cc1ccccc1)C(=O)O)[C@@H](C)CC)[C@@H](C)CC)[C@@H](C)CC [3102.0892] (H-IIIPFIAYF-OH) ?
Result: 1.6 nM

###

- measuredTarget: HLA B*1501 (Homo sapiens, UniProt P01889, A329T/A93T/A95T/C349S/D201E/D98Y/E187L/E204Q/E69M/E70A/K202T/N87E/Q94N/R155S/R180W/S121R/S35A/S48A/V306I/V36M/Y140S/Y91S)
- protocolText: biochemical
Where a SMILES comes first, the peptide text is derived from it.
So basically: is IC50 under 10 nM? Then class 1. Not under? Then class 0.

Example entries and their recorded answers appear below.
INSERT INTO measurements (molecule, assignedclass) VALUES
  ('C[C@H](NC(=O)[C@H](CO)NC(=O)[C@@H](N)CCCNC(=N)N)C(=O)N[C@@H](CC(N)=O)C(=O)N[C@H](C(=O)N[C@@H](CO)C(=O)N[C@@H](C)C(=O)N1CCC[C@H]1C(=O)N[C@@H](Cc1ccccc1)C(=O)O)[C@@H](C)O [3102.0964] (H-RSANTSAPF-OH)', 'class 1'),
  ('CC(C)C[C@H](NC(=O)[C@H](CCCCN)NC(=O)[C@H](CS)NC(=O)[C@H](CC(C)C)NC(=O)[C@@H](N)CO)C(=O)N[C@@H](CC(N)=O)C(=O)N[C@@H](CC(N)=O)C(=O)N[C@H](C(=O)N[C@@H](Cc1ccccc1)C(=O)O)C(C)C [3102.0874] (H-SLCKLNNVF-OH)', 'class 0'),
  ('CSCC[C@H](NC(=O)[C@H](Cc1c[nH]cn1)NC(=O)[C@H](CCC(N)=O)NC(=O)CNC(=O)[C@@H]1CCCN1C(=O)[C@@H]1CCCN1C(=O)[C@H](C)NC(=O)[C@H](CO)NC(=O)[C@@H](N)CS)C(=O)O [3102.1226] (H-CSAPPGQHM-OH)', 'class 0'),
  ('CC[C@H](C)[C@H](NC(=O)[C@@H](NC(=O)[C@H](CO)NC(=O)[C@H](CO)NC(=O)[C@H](CO)NC(=O)[C@H](CCCCN)NC(=O)[C@H](C)NC(=O)[C@@H](NC(=O)[C@@H](N)CC(C)C)[C@@H](C)CC)C(C)C)C(=O)O [3102.1021] (H-LIAKSSSVI-OH)', 'class 0'),
  ('CSCC[C@H](N)C(=O)N[C@H](C(=O)N[C@@H](Cc1ccc(O)cc1)C(=O)N[C@@H](CCCCN)C(=O)N[C@@H](CC(C)C)C(=O)N[C@H](C(=O)N[C@@H](CC(C)C)C(=O)N[C@@H](CC(C)C)C(=O)N[C@@H](Cc1ccccc1)C(=O)O)C(C)C)C(C)C [3102.0893] (H-MVYKLVLLF-OH)', 'class 0');

--- query ---
Request: Take the molecule CC(C)C[C@H](NC(=O)[C@@H](N)CCCCN)C(=O)N[C@@H](CC(N)=O)C(=O)N[C@@H](CC(N)=O)C(=O)N[C@H](C(=O)N[C@@H](Cc1ccccc1)C(=O)N[C@@H](Cc1ccc(O)cc1)C(=O)N[C@H](C(=O)N[C@@H](Cc1ccccc1)C(=O)O)C(C)C)C(C)C [3102.1169] (H-KLNNVFYVF-OH) and say whether its IC50 is less than 10 nM.
Result: class 1
